- System: A2780 Human Carcinoma Cells
- assay-summary: Glucose displacement assay (ATP measurement, CellTiter-Glo)
- Type: cell-based
- test-settings: ATP measurement in A2780 cells, 0.5 μM rotenone, 10 mM glucose, read-out: IC50 [μM] at 10 mM glucose
- Protocol: 2. Glucose Displacement Assay (ATP Measurement) 30,000 A2780 Human Carcinoma Cells are seeded per well in a Greiner 96-well plate. Cells are expanded and cultured in RPMI 1640 medium+GlutaMAX® with 10% FCS and 11 mM glucose, at 37° C. with 5% CO2. After 44 h, culture media is changed and washed once with PBS to starvation media consisting of RPMI 1640 medium with 1% FCS without glucose for 2 hours. […]
Item-by-item account of IC50

Answered cases to consult:
For the compound COc1cc(OCc2cn3c(C)cccc3n2)c(Cl)cc1C(=O)O[C@H]1[C@@H](OC)O[C@H](CO)[C@@H](O)[C@@H]1O , what IC50 is on record?
6.07 µM

For the compound COc1cc(OCc2cccc(NC(=O)CCCC(=O)OC(C)(C)C)c2)c(Cl)cc1C(=O)O[C@H]1[C@@H](OC)O[C@H](CO)[C@@H](O)[C@@H]1O , what IC50 is on record?
3.73 µM

For the compound C#CCCCCCCn1c(COc2c(Cl)cc(C(=O)O[C@H]3[C@@H](OC)O[C@H](CO)[C@@H](O)[C@@H]3O)c(C)c2Cl)nc2ccccc21 , what IC50 is on record?
1.2 µM

For the compound COC(=O)[C@H](CCC(=O)Nc1cccc(COc2cc(OC)c(C(=O)O[C@H]3[C@@H](OC)O[C@H](CO)[C@@H](O)[C@@H]3O)cc2Cl)c1)NC(=O)OC(C)(C)C , what IC50 is on record?
7.83 µM

# input for lookup
For the compound COC(=O)[C@H](CCCCNC(=O)CCCCCCC(=O)NCc1cccc(COc2cc(OC)c(C(=O)N[C@H]3[C@@H](OC)O[C@H](CO)[C@@H](O)[C@@H]3O)cc2Cl)c1)NC(=O)OC(C)(C)C , what IC50 is on record?
> 33 µM
